I'd be grateful if you could share measured apparent KD of MS2 coat protein for these entries.
System: MS2 coat protein
test: apparent KD of MS2 coat protein; designed switch direction (-1 OFF switch, 1 ON switch): -1; higher = weaker reporter binding
condition-parameters: input ligand: FMN 200 uM
Give bare numbers, in µM.

1. AUAAGUAUAUAGGAUAUCUAGCUGGUAACAGCUAGAGAAGGAUGUACAUGAGGAUCACCCAUGUAAAUCUCAAU [Ex6/12-A2] (Eterna round: R97, puzzle: Exclusion 6) : 0.0157
2. CUAGCUAUUGUAGGAUAUCGAUGUGUUUCACAUCGAGAAGGACAUGAGGAUCACCCAUGUGAAAGGAUCGUGAGAUCCAGCUAG [JL ENG1 3.76] (Eterna round: R96, puzzle: Exclusion NG 1) : 0.0819
3. GAAAGACAUGAGGAUCACCCAUGUCAGGAUAUGAUGCCAGCGUAGCUAGUAGGUUUUGUCAGAAGGGACGGGUU [Eternabot (L1) Solution 70] (Eterna round: R97, puzzle: Exclusion 1) : 0.0322
4. GCCUCACUUGAGGAUCACCCAAGUCAGGAUAUUCACUGAACUGCGUAACAGCUCGGCCGAAGAAGGGAUUCGGG [Leisatat] (Eterna round: R97, puzzle: Exclusion 1) : 0.0808
5. UGUAUAGGAGUGAGGAUAUGGAAACUGGAAAAGGACCAGAAGGCACAUGAGGAUCACCCAUGUGGUUCUCAAGA [Eternabot (Original) Solution 50] (Eterna round: R97, puzzle: Brourd's mod of Exclusion 4) : 1.21
6. AGGUAGUCAGGAUAUUAAGAGUAGCGGGAUAACGCUACGAGUGAGAAGGGACAUGAGGAUCACCCAUGUUUUUU [JR_Ex4_Sub072] (Eterna round: R97, puzzle: Exclusion 4) : 0.022
7. GUAGAGUCAGGAUAUACGAGAUCGAAAGAUCGGCGAUCCAUACAUGAGGAUCACCCAUGUAGAAGGGACUCUAC [ChP 11-04-2015 #5] (Eterna round: R96, puzzle: Exclusion 2) : 0.177
8. UCCAUGUCAGGAUAUCCUAGCGCAAAGUUGCCCGCGCUGCUGGAGAAGGGACAUGAGGAUCACCCAUGUCUACA [EX4 C.10] (Eterna round: R97, puzzle: Exclusion 4) : 0.0768

I'm hoping you can list apparent KD of MS2 coat protein for every sequence here, please.
1. CUUGUGCAACAGGAUAUGUGCACGGCAGUAGCAACAGAAGGGUUGACAUGAGGAUCACCCAUGUUUACAAAGCG [Eternabot (Original) Solution 35] (Eterna round: R97, puzzle: Exclusion 6)
2. CAGUACUGAGGAUAUACAUGAGGAUCACCCAUGUGAUAAGGUUAGGAAACUAACCUAUGUAGAAGGCAGUACUG [Eli x3 4.08] (Eterna round: R97, puzzle: Exclusion 3)
3. GCAGUAUGAGUUAGGAUAUGAUGAUUUUUUUUAUUUCAGAAGGAACUUGAGGAUCACCCAAGUUAAGAUUUGGU [JR_BMEx4_Sub068] (Eterna round: R97, puzzle: Brourd's mod of Exclusion 4)
4. CAGUACUGAGGAUAUACAUGAGGAUCACCCAUGUGAACCAGCUAGGAUACUAGCAAAAGUAGAAGGCAGUACUG [Mat - Exclusion 3 - Eli Mod - D17] (Eterna round: R97, puzzle: Exclusion 3)
5. CCGGAACAUGAGGAUCACCCAUGUGAGGAUAUCGUACGUUCGUCGAAAGACGAUCGUACGAGAAGGCACGCCGG [Eli x1 4.33] (Eterna round: R97, puzzle: Exclusion 1)
6. CUUUCGUGAGGAUAUGUGGCUUCGAAAGUGAGAUCGAGGCUACAGAAGGCACAUGAGGAUCACCCAUGUUCCUC [salish99_ex4_r4_214] (Eterna round: R97, puzzle: Exclusion 4)

[0.132, 0.603, 0.0456, 0.067, 0.0172, 0.371]
